# assay-text: Maximum plasma concentration reached by compound was determined in rats at 50 mg/kg dose
# Format: ADME, organism-based
# Design: dose 50 mg/kg
# condition-details: rat
assay-readout: Cmax (ng/mL)

[
  {
    "compound": "CO/N=C1\\CN(c2nc3c(cc2F)c(=O)c(C(=O)O)cn3C2CC2)CC1CN (stereo not drawn)",
    "readout-number": 6630
  },
  {
    "compound": "CO/N=C1\\CN(c2c(F)c(N)c3c(=O)c(C(=O)O)cn(C4CC4)c3c2F)C[C@]1(C)CN.Cl",
    "readout-number": 6670
  },
  {
    "compound": "CO/N=C1\\CN(c2nc3c(cc2F)c(=O)c(C(=O)O)cn3C2CC2)C[C@]1(C)CN.Cl",
    "readout-number": 9060
  }
]

====

# System: Staphylococcus aureus
# assay-text: In vitro antibacterial activity against the Methicillin-Resistant Staphylococcus aureus (MRSA) 690 E
# Assay type: functional
Parameter: MIC. Scope: all listed entries.

[
  {
    "compound": "CO/N=C1\\CN(c2nc3c(cc2F)c(=O)c(C(=O)O)cn3C2CC2)CC1CN (configuration not stated)",
    "MIC": "0.098 µg/mL"
  },
  {
    "compound": "O=C(O)c1cn(C2CC2)c2cc(N3CCNCC3)c(F)cc2c1=O",
    "MIC": "0.391 µg/mL"
  },
  {
    "compound": "CO/N=C1\\CN(c2nc3c(cc2F)c(=O)c(C(=O)O)cn3C2CC2)CC1(C)CN.Cl (configuration not stated)",
    "MIC": "0.004 µg/mL"
  },
  {
    "compound": "CO/N=C1\\CN(c2c(F)c(N)c3c(=O)c(C(=O)O)cn(C4CC4)c3c2F)C[C@]1(C)CN.Cl",
    "MIC": "< 0.002 µg/mL"
  },
  {
    "compound": "CO/N=C1\\CN(c2nc3c(cc2F)c(=O)c(C(=O)O)cn3C2CC2)C[C@]1(C)CN.Cl",
    "MIC": "< 0.002 µg/mL"
  },
  {
    "compound": "CO/N=C1\\CN(c2c(F)c(N)c3c(=O)c(C(=O)O)cn(C4CC4)c3c2F)C[C@@]1(C)CN.Cl",
    "MIC": "0.004 µg/mL"
  },
  {
    "compound": "CO/N=C1\\CN(c2nc3c(cc2F)c(=O)c(C(=O)O)cn3C2CC2)C[C@@]1(C)CN.Cl",
    "MIC": "0.025 µg/mL"
  }
]

====

# assay-text: Plasma concentration for the compound was determined in rats at 50 mg/kg dose
# Assay type: ADME, organism-based
# Design: dose 50 mg/kg
# condition-details: rat

[
  {
    "molecule": "O=C(O)c1cn(C2CC2)c2cc(N3CCNCC3)c(F)cc2c1=O",
    "uom": "ng·h/mL",
    "AUC": 12700
  },
  {
    "molecule": "CO/N=C1\\CN(c2nc3c(cc2F)c(=O)c(C(=O)O)cn3C2CC2)C[C@]1(C)CN.Cl",
    "uom": "ng·h/mL",
    "AUC": 90800
  },
  {
    "molecule": "CO/N=C1\\CN(c2nc3c(cc2F)c(=O)c(C(=O)O)cn3C2CC2)CC1CN (centres undefined)",
    "uom": "ng·h/mL",
    "AUC": 25800
  },
  {
    "molecule": "CO/N=C1\\CN(c2c(F)c(N)c3c(=O)c(C(=O)O)cn(C4CC4)c3c2F)C[C@]1(C)CN.Cl",
    "uom": "ng·h/mL",
    "AUC": 68800
  }
]

====

# Test system: Streptococcus pyogenes
# assay-text: In vitro antibacterial activity against the Streptococcus pyogenes 77A
# Assay type: functional
Parameter: MIC. Scope: all listed entries.

[
  {
    "compound": "CO/N=C1\\CN(c2cc3c(cc2F)c(=O)c(C(=O)O)cn3C2CC2)CC1(C)CN.Cl (centres undefined)",
    "value-operator": "=",
    "MIC, µg/mL": 0.013
  },
  {
    "compound": "CO/N=C1\\CN(c2c(F)c(N)c3c(=O)c(C(=O)O)cn(C4CC4)c3c2F)C[C@]1(C)CN.Cl",
    "value-operator": "<",
    "MIC, µg/mL": 0.002
  },
  {
    "compound": "O=C(O)c1cn(C2CC2)c2cc(N3CCNCC3)c(F)cc2c1=O [CIPROFLOXACIN]",
    "value-operator": "=",
    "MIC, µg/mL": 0.391
  },
  {
    "compound": "CO/N=C1\\CN(c2nc3c(cc2F)c(=O)c(C(=O)O)cn3C2CC2)CC1(C)CN.Cl (centres undefined)",
    "value-operator": "=",
    "MIC, µg/mL": 0.025
  }
]

====

# Test system: Staphylococcus aureus
# assay-text: In vitro antibacterial activity against the Methicillin-Resistant Staphylococcus aureus (MRSA) 697 E
# Type: functional

[
  {
    "compound": "CO/N=C1\\CN(c2c(F)c(N)c3c(=O)c(C(=O)O)cn(C4CC4)c3c2F)C[C@]1(C)CN.Cl",
    "value-operator": "<",
    "MIC / µg/mL": 0.002
  },
  {
    "compound": "O=C(O)c1cn(C2CC2)c2cc(N3CCNCC3)c(F)cc2c1=O [CIPROFLOXACIN]",
    "value-operator": "=",
    "MIC / µg/mL": 0.391
  },
  {
    "compound": "CO/N=C1\\CN(c2c(F)c(N)c3c(=O)c(C(=O)O)cn(C4CC4)c3c2F)C[C@@]1(C)CN.Cl",
    "value-operator": "=",
    "MIC / µg/mL": 0.004
  },
  {
    "compound": "CO/N=C1\\CN(c2nc3c(cc2F)c(=O)c(C(=O)O)cn3C2CC2)C[C@@]1(C)CN.Cl",
    "value-operator": "=",
    "MIC / µg/mL": 0.025
  },
  {
    "compound": "CO/N=C1\\CN(c2nc3c(cc2F)c(=O)c(C(=O)O)cn3C2CC2)CC1CN (configuration not stated) [GEMIFLOXACIN]",
    "value-operator": "=",
    "MIC / µg/mL": 0.049
  },
  {
    "compound": "CO/N=C1\\CN(c2nc3c(cc2F)c(=O)c(C(=O)O)cn3C2CC2)CC1(C)CN.Cl (configuration not stated)",
    "value-operator": "=",
    "MIC / µg/mL": 0.007
  },
  {
    "compound": "CO/N=C1\\CN(c2nc3c(cc2F)c(=O)c(C(=O)O)cn3C2CC2)C[C@]1(C)CN.Cl",
    "value-operator": "<",
    "MIC / µg/mL": 0.002
  }
]

====

# assay-text: Half-life period for the compound was determined in rats at 50 mg/kg dose
# Assay type: ADME, organism-based
# Parameters: dose 50 mg/kg
# condition-details: rat, in vivo
Parameter: half-life. Scope: all listed entries.
assay-readout: half-life (h)

[
  {
    "compound": "CO/N=C1\\CN(c2c(F)c(N)c3c(=O)c(C(=O)O)cn(C4CC4)c3c2F)C[C@]1(C)CN.Cl",
    "uom": "h",
    "readout-number": 6.94
  },
  {
    "compound": "CO/N=C1\\CN(c2nc3c(cc2F)c(=O)c(C(=O)O)cn3C2CC2)C[C@]1(C)CN.Cl",
    "uom": "h",
    "readout-number": 4.5
  },
  {
    "compound": "CO/N=C1\\CN(c2nc3c(cc2F)c(=O)c(C(=O)O)cn3C2CC2)CC1CN (stereo not drawn)",
    "uom": "h",
    "readout-number": 2.12
  }
]

====

# System: Staphylococcus epidermidis
# assay-text: In vitro antibacterial activity against the Ofloxacin Resistant Staphylococcus epidermidis 291
# Assay type: functional
Parameter: log10 MIC. Scope: all listed entries.
assay-readout: log10 MIC (log10 of the value in µg/mL)

[
  {
    "compound": "CO/N=C1\\CN(c2c(F)c(N)c3c(=O)c(C(=O)O)cn(C4CC4)c3c2F)C[C@@]1(C)CN.Cl",
    "log10 MIC": -0.41
  },
  {
    "compound": "CO/N=C1\\CN(c2nc3c(cc2F)c(=O)c(C(=O)O)cn3C2CC2)C[C@@]1(C)CN.Cl",
    "log10 MIC": 0.49
  },
  {
    "compound": "CO/N=C1\\CN(c2nc3c(cc2F)c(=O)c(C(=O)O)cn3C2CC2)C[C@]1(C)CN.Cl",
    "log10 MIC": -0.71
  },
  {
    "compound": "CO/N=C1\\CN(c2nc3c(cc2F)c(=O)c(C(=O)O)cn3C2CC2)CC1(C)CN.Cl (stereo not drawn)",
    "log10 MIC": -0.41
  },
  {
    "compound": "CO/N=C1\\CN(c2c(F)c(N)c3c(=O)c(C(=O)O)cn(C4CC4)c3c2F)CC1(C)CN.Cl (stereo not drawn)",
    "log10 MIC": -1.60
  },
  {
    "compound": "CO/N=C1\\CN(c2nc3c(cc2F)c(=O)c(C(=O)O)cn3C2CC2)CC1CN (stereo not drawn)",
    "log10 MIC": 0.19
  },
  {
    "compound": "O=C(O)c1cn(C2CC2)c2cc(N3CCNCC3)c(F)cc2c1=O",
    "log10 MIC": 1.70
  },
  {
    "compound": "CO/N=C1\\CN(c2c(F)c(N)c3c(=O)c(C(=O)O)cn(C4CC4)c3c2F)C[C@]1(C)CN.Cl",
    "log10 MIC": -1.31
  }
]
